tested on: Mycobacterium tuberculosis; assay: Antituberculosis activity against Mycobacterium tuberculosis H37Rv assessed as growth inhibition after 12 to 28 days by Lowenstein-Jensen method; assay type: functional
// boundary case: MIC equal to 60 µg/mL maps to False; strictly smaller maps to True

>  <Molecule>
C=CCn1c(=O)c(C2C(C(=O)OC(C)C)=C(N)N(NC(=O)c3ccncc3)C3=C2C(=O)CC(C)(C)C3)cc2cc(C)ccc21 (stereo not drawn)

>  <Group>
True

$$$$
>  <Molecule>
C=CCn1c(=O)c(C2C(C(=O)OCC)=C(N)N(NC(=O)c3ccncc3)C3=C2C(=O)CC(C)(C)C3)cc2cc(C)ccc21 (stereo not drawn)

>  <Group>
False

$$$$
>  <Molecule>
NNC(=O)c1ccncc1

>  <Group>
True

$$$$
>  <Molecule>
C=CCn1c(=O)c(C2C(C(=O)OC)=C(N)N(NC(=O)c3ccncc3)C3=C2C(=O)CC(C)(C)C3)cc2cc(C)ccc21 (stereo not drawn)

>  <Group>
True

$$$$
>  <Molecule>
C=CCn1c(=O)c(C2C(C(=O)OCC)=C(N)N(NC(=O)c3ccncc3)C3=C2C(=O)CC(C)(C)C3)cc2cc(OC)ccc21 (stereo not drawn)

>  <Group>
False

$$$$
>  <Molecule>
CO[C@H]1/C=C/O[C@@]2(C)Oc3c(C)c(O)c4c(O)c(c(/C=N/N5CCN(C)CC5)c(O)c4c3C2=O)NC(=O)/C(C)=C\C=C\[C@H](C)[C@H](O)[C@@H](C)[C@@H](O)[C@@H](C)[C@H](OC(C)=O)[C@@H]1C

>  <Group>
True

$$$$
>  <Molecule>
C=CCn1c(=O)c(C2C(C(=O)OC(C)C)=C(N)N(NC(=O)c3ccncc3)C3=C2C(=O)CC(C)(C)C3)cc2cc(Cl)ccc21 (stereo not drawn)

>  <Group>
False

$$$$
>  <Molecule>
C=CCn1c(=O)c(C2C(C(=O)OC)=C(N)N(NC(=O)c3ccncc3)C3=C2C(=O)CCC3)cc2cc(OC)ccc21 (stereo not drawn)

>  <Group>
True

$$$$

---

test: Cytotoxicity in Artemia cysts assessed as mortality of nauplii at 50 ug/mL after 24 hrs relative to control; type: organism-based; conditions: in vivo

>  <Compound>
C=CCn1c(=O)c(C2C(C(=O)OCC)=C(N)N(NC(=O)c3ccncc3)C3=C2C(=O)CC(C)(C)C3)cc2cc(C)ccc21 (stereo unspecified)

>  <mortality at 24 h, 50 ug/mL, %>
80

$$$$
>  <Compound>
C=CCn1c(=O)c(C2C(C(=O)OC(C)C)=C(N)N(NC(=O)c3ccncc3)C3=C2C(=O)CC(C)(C)C3)cc2cc(Cl)ccc21 (stereo unspecified)

>  <mortality at 24 h, 50 ug/mL, %>
90

$$$$
>  <Compound>
C=CCn1c(=O)c(C2C(C(=O)OCC)=C(N)N(NC(=O)c3ccncc3)C3=C2C(=O)CC(C)(C)C3)cc2cc(OC)ccc21 (stereo unspecified)

>  <mortality at 24 h, 50 ug/mL, %>
80

$$$$
>  <Compound>
C=CCn1c(=O)c(C2C(C(=O)OC)=C(N)N(NC(=O)c3ccncc3)C3=C2C(=O)CCC3)cc2cc(OC)ccc21 (stereo unspecified)

>  <mortality at 24 h, 50 ug/mL, %>
90

$$$$
>  <Compound>
C=CCn1c(=O)c(C2C(C(=O)OC)=C(N)N(NC(=O)c3ccncc3)C3=C2C(=O)CC(C)(C)C3)cc2cc(C)ccc21 (stereo unspecified)

>  <mortality at 24 h, 50 ug/mL, %>
70

$$$$
>  <Compound>
C=CCn1c(=O)c(C2C(C(=O)OC(C)C)=C(N)N(NC(=O)c3ccncc3)C3=C2C(=O)CC(C)(C)C3)cc2cc(C)ccc21 (stereo unspecified)

>  <mortality at 24 h, 50 ug/mL, %>
70

$$$$
